Reference source for all entries: patent US8993768B2

Tested on: uninfected CEM-SS cells
Assay: Compound cytotoxicity in uninfected cells (same assay plate)
Assay type: cell-based
Conditions: uninfected CEM-SS cells; read-out: Virus Replication CC50
Experimental: All samples were tested in duplicate. The HIV-1 virus strain RF was used to infect CEM-SS cells. Compound cytotoxicity was measured in the same assay plate using uninfected cells. Regression analysis was used to estimate the effective concentration (EC50) as well as the cytotoxic concentration (CC50).
OBSERVED_PROPERTY: CC50 (nM)
A number alone suffices; assume nM.

Problem: Give CC50 only, for CC(C)c1ccc(O)c(=O)c(O)c1 [β-Thujaplicinol, reference compound] , using uninfected CEM-SS cells data.
Solution: 2300

---

target: HIV-1 RNase H (p66/p51 HIV-1 RT) (Human immunodeficiency virus type 1 group M subtype B, UniProt P04585); construct: RT is a p66/p51 heterodimer comprised of asymmetrically-organized subunits processed from the 165 kDa gag/pol polyprotein precursor; (His)6; made in house; host or cells: Escherichia coli; assay: High throughput RNase H assay on sequence-independent RNA/DNA hybrid; type: biochemical; details: read-out: In vitro IC50
OBSERVED_PROPERTY: pIC50
Give only the number. pIC50 is defined as minus log10 of concentration in molar units.

Problem: Output pIC50 of CC(C)c1ccc(O)c(=O)c(O)c1 [β-Thujaplicinol, reference compound]
Solution: 6.68

---

Can you tell me pIC50 for the items I'm about to list?
Target: HIV-1 RNase H (p66/p51 HIV-1 RT) (Human immunodeficiency virus type 1 group M subtype B, UniProt P04585)
Construct: RT is a p66/p51 heterodimer comprised of asymmetrically-organized subunits processed from the 165 kDa gag/pol polyprotein precursor; (His)6; made in house; host or cells: Escherichia coli
Test: High throughput RNase H assay on sequence-independent RNA/DNA hybrid
Type: biochemical
Conditions: HIV-1 RNase H enzymatic activity, sequence-independent RNA/DNA hybrid; read-out: In vitro IC50
Protocol: IC50 values were determined as previously reported (Budihas, S. R., et al., Nucleic Acids Res., 33(4):1249-56 (2005)), using an 18-nucleotide 3′-flourescein-labeled RNA annealed to a complementary 18-nucleotide 5′-dabsyl-labeled DNA. […]
Scale note: pIC50 = -log10(concentration in M).

Problem: Entry Cc1cc(O)c(=O)c(O)c2c1CC(C(C)O)CC2 (mixture of isomers) needs its pIC50 filled in; supply it.
Solution: 6.12

Problem: Determine from records and report pIC50 for Cc1cc(O)c(=O)c(O)c2c1CC(C(C)(O)CNCc1ccccc1F)CC2 (mixture of isomers)
Solution: 5.85

Problem: Tell me its pIC50 given CCS(=O)(=O)CC(C)(O)C1CCc2c(c(C)cc(O)c(=O)c2O)C1 (mixture of isomers) as the entry.
Solution: 6.59

Problem: For the compound Cc1cc(O)c(=O)c(O)c2c1CC(C(C)NCc1ccccc1)CC2 (mixture of isomers) , give its reported pIC50.
Solution: 5.96

Problem: Identify measured pIC50 associated with Cc1cc(O)c(=O)c(O)c2c1CC(C(C)(O)CNc1ccccc1)CC2 (mixture of isomers)
Solution: 5.92

Problem: Write down pIC50 measured for item CCN(CC)CC(C)(O)C1CCc2c(c(C)cc(O)c(=O)c2O)C1 (mixture of isomers)
Solution: 6.31

Problem: Please list pIC50 recorded for the compound Cc1cc(O)c(=O)c(O)c2c1CC(C(C)(O)CS(=O)(=O)c1ccccc1)CC2 (mixture of isomers)
Solution: 6.23

Problem: Return the recorded pIC50 value; entry: Cc1cc(O)c(=O)c(O)c2c1CC(C(C)(O)CO)CC2 (mixture of isomers)
Solution: 5.72

Problem: Tell me its pIC50 given Cc1cc(O)c(=O)c(O)c2c1CC(C(C)(O)C[S+]([O-])Cc1ccccc1)CC2 (stereo not drawn) as the entry.
Solution: 5.82
